Molecular target: MALT1 (Homo sapiens)
Construct: endogenous in cells
Test: EC50 determination for MALT1 inhibition (Trypan blue dye-exclusion in cell lines)
Format: cell-based
Conditions: 0.1 µM - 1 µM - 10 µM; Trypan blue dye-exclusion at t=48h; mean of three independent experiments in triplicates; read-out: EC50 values
Readout Label: EC50
Number first, unit second.

The molecule listed as N[C@@H](CC(=O)N1CCn2c(nnc2C(F)(F)F)C1)Cc1cc(F)c(F)cc1F [Sitagliptin] has a reported EC50 of 1300 nM

----------
Molecular target: MALT1 (Homo sapiens, UniProt Q9UDY8)
Construct: endogenous in cells
Sequence (Q9UDY8 1-824): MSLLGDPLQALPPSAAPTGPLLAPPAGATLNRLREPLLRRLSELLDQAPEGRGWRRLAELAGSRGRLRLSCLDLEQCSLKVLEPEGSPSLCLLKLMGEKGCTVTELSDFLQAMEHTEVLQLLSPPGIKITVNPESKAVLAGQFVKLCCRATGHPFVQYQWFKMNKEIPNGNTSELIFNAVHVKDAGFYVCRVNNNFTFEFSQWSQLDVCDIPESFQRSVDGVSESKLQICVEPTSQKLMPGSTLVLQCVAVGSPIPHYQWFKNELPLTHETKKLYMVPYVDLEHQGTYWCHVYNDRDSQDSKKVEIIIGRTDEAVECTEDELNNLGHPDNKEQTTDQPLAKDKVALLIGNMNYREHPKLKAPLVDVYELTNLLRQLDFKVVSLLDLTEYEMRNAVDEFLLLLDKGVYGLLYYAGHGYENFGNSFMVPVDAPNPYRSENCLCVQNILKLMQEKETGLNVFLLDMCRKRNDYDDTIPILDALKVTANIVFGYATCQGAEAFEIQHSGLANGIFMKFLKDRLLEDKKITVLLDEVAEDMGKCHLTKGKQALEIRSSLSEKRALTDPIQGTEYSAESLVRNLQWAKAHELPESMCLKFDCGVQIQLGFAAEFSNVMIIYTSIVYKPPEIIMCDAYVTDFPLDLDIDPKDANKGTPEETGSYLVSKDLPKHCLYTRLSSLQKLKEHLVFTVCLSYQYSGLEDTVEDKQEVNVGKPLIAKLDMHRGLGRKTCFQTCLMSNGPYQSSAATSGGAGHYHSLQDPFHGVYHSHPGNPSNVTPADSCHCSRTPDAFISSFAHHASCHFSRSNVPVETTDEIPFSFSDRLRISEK
Assay: EC50 determination for MALT1 inhibition (Trypan blue dye-exclusion in cell lines)
Assay type: cell-based
Readout Label: EC50

// returns EC50 for COCCOc1nc(-c2ccc(Cl)c(Cl)c2)n(-c2ccc(NC(=O)CCl)cc2)n1 with MALT1 (Homo sapiens, UniProt Q9UDY8); value = 1000 nM

Data origin: patent EP4494641A1
